In this section we review reported PWT 50% value (g) 4 h values for a set of compounds.
Tested on: incision pain model
Measurement Notes: Incision pain model in ICR mice, Von Frey test
Format: in vivo
Condition Notes: 50 mg/kg single dose, 4 h after administration, Mean + SEM, n = 10
// note: answer is a bare numeric in g

{"Compound": "COc1c([C@@H]2C[C@](C)(C(F)(F)F)S[C@H]2C(=O)Nc2cccc(S(=O)(=O)N=[N+]=[N-])c2)ccc(F)c1F", "Tested System": "incision pain model", "Unit Info": "g", "PWT 50% value (g) 4 h": 0.51}
{"Compound": "COc1c([C@@H]2C[C@](C)(C(F)(F)F)S[C@H]2C(=O)Nc2ccnc(NC#N)c2)ccc(F)c1F", "Tested System": "incision pain model", "Unit Info": "g", "PWT 50% value (g) 4 h": 0.35}
{"Compound": "COc1c([C@@H]2C[C@](C)(C(F)(F)F)S[C@H]2C(=O)Nc2ccc(F)c(S(N)(=O)=O)c2)ccc(F)c1F", "Tested System": "incision pain model", "Unit Info": "g", "PWT 50% value (g) 4 h": 0.41}
{"Compound": "COc1c([C@@H]2C[C@](C)(C(F)(F)F)S[C@H]2C(=O)Nc2ccn3nncc3c2)ccc(F)c1F", "Tested System": "incision pain model", "Unit Info": "g", "PWT 50% value (g) 4 h": 0.4}
{"Compound": "COc1c([C@@H]2C[C@](C)(C(F)(F)F)S[C@H]2C(=O)Nc2ccnc(N=[N+]=[N-])c2)ccc(F)c1F", "Tested System": "incision pain model", "Unit Info": "g", "PWT 50% value (g) 4 h": 0.57}
{"Compound": "COc1c([C@@H]2C[C@](C)(C(F)(F)F)SC2C(=O)Nc2ccnc([N+](=O)[O-])c2)ccc(F)c1F (stereo in doubt)", "Tested System": "incision pain model", "Unit Info": "g", "PWT 50% value (g) 4 h": 0.47}
{"Compound": "CO/N=C(\\N)c1cc(NC(=O)[C@@H]2S[C@@](C)(C(F)(F)F)C[C@H]2c2ccc(F)c(F)c2OC)ccn1", "Tested System": "incision pain model", "Unit Info": "g", "PWT 50% value (g) 4 h": 0.29}
{"Compound": "COc1c(C2CC(C)(C(F)(F)F)SC2C(=O)Nc2ccnc(C(N)=O)c2)ccc(F)c1F (single isomer, unassigned)", "Tested System": "incision pain model", "Unit Info": "g", "PWT 50% value (g) 4 h": 0.74}
{"Compound": "COc1c([C@@H]2C[C@](C)(C(F)(F)F)S[C@H]2C(=O)Nc2ccc3c(c2)S(=O)(=O)NC3)ccc(F)c1F", "Tested System": "incision pain model", "Unit Info": "g", "PWT 50% value (g) 4 h": 0.32}

Now consider a different compound.
Ask | Give its PWT 50% value (g) 4 h value. Item: COc1c([C@@H]2C[C@](C)(C(F)(F)F)S[C@H]2C(=O)Nc2ccc(NS(N)(=O)=O)c(F)c2)ccc(F)c1F
Reply | 0.44
